Attribution: patent US7495025B2

# System: multi-drug resistant strain of Plasmodium yoelii Nigeriensis
# ASSAY NAME: Antimalarial activity against multi-drug resistant P. yoelii in Swiss mice (4-day treatment, observation till day 28)
# Assay type: in vivo
# CONDITION DETAILS: Plasmodium yoelii, im, 672 h; Swiss mice, 96 mg/kg/day, i.m., in groundnut oil, days 0-3; read-out: Mice alive on day-28 (converted)
READOUT LABEL: responders at 96 mg/kg/day (%)
The figure you give is taken to be in %; do not add the unit.

Enter responders at 96 mg/kg/day (test system multi-drug resistant strain of Plasmodium yoelii Nigeriensis) for C=C(c1ccc(OC)cc1)C1COC2(CCC(=CC(=O)OCC)CC2)OO1 (stereo not shown) 40

Enter responders at 96 mg/kg/day (test system multi-drug resistant strain of Plasmodium yoelii Nigeriensis) for C=C(c1ccc(C2CCCCC2)cc1)C1COC2(CCC(=O)CC2)OO1 (stereo not shown) 40

Enter responders at 96 mg/kg/day (test system multi-drug resistant strain of Plasmodium yoelii Nigeriensis) for C=C(c1ccc(Cl)cc1)C1COC2(CCC(=CC(=O)OCC)CC2)OO1 (stereo not shown) 100

Enter responders at 96 mg/kg/day (test system multi-drug resistant strain of Plasmodium yoelii Nigeriensis) for C=C(c1cccc2ccccc12)C1COC2(CCC(=CC(=O)OCC)CC2)OO1 (stereo not shown) 100

Enter responders at 96 mg/kg/day (test system multi-drug resistant strain of Plasmodium yoelii Nigeriensis) for C=C(c1ccc(C)cc1)C1COC2(CCC(=CC(=O)OCC)CC2)OO1 (stereo not shown) 100

Enter responders at 96 mg/kg/day (test system multi-drug resistant strain of Plasmodium yoelii Nigeriensis) for C=C(c1ccc2ccccc2c1)C1COC2(CCC(=CC(=O)OCC)CC2)OO1 (stereo not shown) 40

Enter responders at 96 mg/kg/day (test system multi-drug resistant strain of Plasmodium yoelii Nigeriensis) for C=C(c1ccccc1)C1COC2(CCC(=CC(=O)OCC)CC2)OO1 (stereo not shown) 40
